test: refractive index (Na D-line) (dimensionless); settings: 298.15 K; 101.33 kPa; Liquid; Standard Abbe refractometry
Numbers after ± are expanded uncertainties.
endpoint.name: refractive index

Please review the following examples before continuing.
test.smiles | refractive index
CCCC[n+]1ccn(C)c1.O=S(=O)([N-]S(=O)(=O)C(F)(F)F)C(F)(F)F | 1.42705 ± 0.001
CC(C)C[N+]1(C)CCCC1.O=S(=O)([N-]S(=O)(=O)C(F)(F)F)C(F)(F)F | 1.42418 ± 0.00051
CC(C)Cn1cc[n+](C)c1.O=S(=O)([N-]S(=O)(=O)C(F)(F)F)C(F)(F)F | 1.42699 ± 0.00051
CCCC[N+]1(C)CCCCC1.O=S(=O)([N-]S(=O)(=O)C(F)(F)F)C(F)(F)F | 1.42959 ± 0.00037

Item: "CC(C)C[N+]1(C)CCCCC1.O=S(=O)([N-]S(=O)(=O)C(F)(F)F)C(F)(F)F" | refractive index: 1.43099 ± 0.00051

====

settings: 323.15 K; 101.33 kPa; Liquid; Concentric cylinders viscometry
Listed molecules paired with reported viscosity
Response body: numeric value in mPa·s, unit text excluded.

These solved cases illustrate the format of a correct answer.
test.smiles | observed.result
Cc1ccc[n+](CC(C)C)c1.O=S(=O)([N-]S(=O)(=O)C(F)(F)F)C(F)(F)F | 31.63
CC(C)C[N+]1(C)CCCC1.O=S(=O)([N-]S(=O)(=O)C(F)(F)F)C(F)(F)F | 26.18
CCCC[N+]1(C)CCCC1.O=S(=O)([N-]S(=O)(=O)C(F)(F)F)C(F)(F)F | 30.07
CC(C)Cn1cc[n+](C)c1.O=S(=O)([N-]S(=O)(=O)C(F)(F)F)C(F)(F)F | 27.81
CCCC[n+]1cccc(C)c1.O=S(=O)([N-]S(=O)(=O)C(F)(F)F)C(F)(F)F | 24.59

The value of viscosity measured for the molecule "CCCC[N+]1(C)CCCCC1.O=S(=O)([N-]S(=O)(=O)C(F)(F)F)C(F)(F)F" turned out to be 54.34

// "CC(C)C[N+]1(C)CCCCC1.O=S(=O)([N-]S(=O)(=O)C(F)(F)F)C(F)(F)F" : viscosity value = 49.34

====

assay: molar heat capacity at constant pressure; conditions: 298.15 K; 101.33 kPa; Liquid; Drop calorimetry
endpoint.name: molar heat capacity at constant pressure (J/K/mol)
Could you give me the number in J/K/mol? Just the number is fine.

Previously resolved entries follow.
test.smiles | molar heat capacity at constant pressure (J/K/mol)
CC(C)Cn1cc[n+](C)c1.O=S(=O)([N-]S(=O)(=O)C(F)(F)F)C(F)(F)F | 565.31
Cc1ccc[n+](CC(C)C)c1.O=S(=O)([N-]S(=O)(=O)C(F)(F)F)C(F)(F)F | 578.87
CCCC[n+]1cccc(C)c1.O=S(=O)([N-]S(=O)(=O)C(F)(F)F)C(F)(F)F | 578.01

For this compound ( "CCCC[n+]1ccn(C)c1.O=S(=O)([N-]S(=O)(=O)C(F)(F)F)C(F)(F)F" ), measured molar heat capacity at constant pressure is 565.73

Measured molar heat capacity at constant pressure of "CCCC[N+]1(C)CCCCC1.O=S(=O)([N-]S(=O)(=O)C(F)(F)F)C(F)(F)F" : 607.52

Reported molar heat capacity at constant pressure of "CCCC[N+]1(C)CCCC1.O=S(=O)([N-]S(=O)(=O)C(F)(F)F)C(F)(F)F" : 584.19

The reported molar heat capacity at constant pressure of the compound "CC(C)C[N+]1(C)CCCC1.O=S(=O)([N-]S(=O)(=O)C(F)(F)F)C(F)(F)F" was 582.08

====

conditions: 343.15 K; 101.33 kPa; Liquid; Concentric cylinders viscometry
Mark each entry T if its viscosity sits below 20 mPa·s, and F for all others.

For orientation, consider the following solved cases.
test.smiles | class
CC(C)C[N+]1(C)CCCC1.O=S(=O)([N-]S(=O)(=O)C(F)(F)F)C(F)(F)F | T
Cc1ccc[n+](CC(C)C)c1.O=S(=O)([N-]S(=O)(=O)C(F)(F)F)C(F)(F)F | T
CCCC[N+]1(C)CCCCC1.O=S(=O)([N-]S(=O)(=O)C(F)(F)F)C(F)(F)F | F
CCCC[n+]1cccc(C)c1.O=S(=O)([N-]S(=O)(=O)C(F)(F)F)C(F)(F)F | T
CC(C)Cn1cc[n+](C)c1.O=S(=O)([N-]S(=O)(=O)C(F)(F)F)C(F)(F)F | T
CC(C)C[N+]1(C)CCCCC1.O=S(=O)([N-]S(=O)(=O)C(F)(F)F)C(F)(F)F | F

Kindly review the next compound as well.
Incoming: Dear colleague, could you confirm whether viscosity of "CCCC[N+]1(C)CCCC1.O=S(=O)([N-]S(=O)(=O)C(F)(F)F)C(F)(F)F" falls below 20 mPa·s? Thanks.
Outgoing: T

====

conditions: 363.15 K; 101.33 kPa; Liquid; Concentric cylinders viscometry
We label by threshold. Values of viscosity strictly beneath 10 mPa·s are satisfied. Values of 10 mPa·s and up are not satisfied.

Worked cases, answers included:
test.smiles | class
CC(C)C[N+]1(C)CCCC1.O=S(=O)([N-]S(=O)(=O)C(F)(F)F)C(F)(F)F | satisfied
CCCC[n+]1cccc(C)c1.O=S(=O)([N-]S(=O)(=O)C(F)(F)F)C(F)(F)F | satisfied
CC(C)C[N+]1(C)CCCCC1.O=S(=O)([N-]S(=O)(=O)C(F)(F)F)C(F)(F)F | not satisfied

Incoming: In plain terms, does "CCCC[N+]1(C)CCCC1.O=S(=O)([N-]S(=O)(=O)C(F)(F)F)C(F)(F)F" come in under 10 mPa·s for viscosity?
Outgoing: not satisfied

Incoming: Consider the compound "CC(C)Cn1cc[n+](C)c1.O=S(=O)([N-]S(=O)(=O)C(F)(F)F)C(F)(F)F" . Is its viscosity strictly less than 10 mPa·s?
Outgoing: satisfied

Incoming: Consider the compound "CCCC[N+]1(C)CCCCC1.O=S(=O)([N-]S(=O)(=O)C(F)(F)F)C(F)(F)F" . Is its viscosity strictly less than 10 mPa·s?
Outgoing: not satisfied

====

settings: 333.15 K; 101.33 kPa; Liquid; Concentric cylinders viscometry
endpoint.name: viscosity (mPa·s)
Give a bare numeral; the unit mPa·s is implied.

As a guide, the following entries are already answered.
test.smiles | uom | viscosity
Cc1ccc[n+](CC(C)C)c1.O=S(=O)([N-]S(=O)(=O)C(F)(F)F)C(F)(F)F | mPa·s | 22.36
CC(C)C[N+]1(C)CCCC1.O=S(=O)([N-]S(=O)(=O)C(F)(F)F)C(F)(F)F | mPa·s | 19.57
CCCC[N+]1(C)CCCC1.O=S(=O)([N-]S(=O)(=O)C(F)(F)F)C(F)(F)F | mPa·s | 22.16
CCCC[n+]1cccc(C)c1.O=S(=O)([N-]S(=O)(=O)C(F)(F)F)C(F)(F)F | mPa·s | 18.1
CC(C)Cn1cc[n+](C)c1.O=S(=O)([N-]S(=O)(=O)C(F)(F)F)C(F)(F)F | mPa·s | 20.05

Please fill in: viscosity reported for "CC(C)C[N+]1(C)CCCCC1.O=S(=O)([N-]S(=O)(=O)C(F)(F)F)C(F)(F)F" = 34.11

Recorded viscosity (compound "CCCC[N+]1(C)CCCCC1.O=S(=O)([N-]S(=O)(=O)C(F)(F)F)C(F)(F)F" ): 37.09

====

details: 353.15 K; 101.33 kPa; Liquid; Concentric cylinders viscometry
The reader will find reported viscosity values listed item by item below.
Give a bare numeral; the unit mPa·s is implied.

Worked cases, viscosity given:
test.smiles | endpoint.name | uom | observed.result
CCCC[N+]1(C)CCCCC1.O=S(=O)([N-]S(=O)(=O)C(F)(F)F)C(F)(F)F | viscosity | mPa·s | 19.65
Cc1ccc[n+](CC(C)C)c1.O=S(=O)([N-]S(=O)(=O)C(F)(F)F)C(F)(F)F | viscosity | mPa·s | 12.63
CCCC[N+]1(C)CCCC1.O=S(=O)([N-]S(=O)(=O)C(F)(F)F)C(F)(F)F | viscosity | mPa·s | 13.21
CC(C)Cn1cc[n+](C)c1.O=S(=O)([N-]S(=O)(=O)C(F)(F)F)C(F)(F)F | viscosity | mPa·s | 11.63
CCCC[n+]1cccc(C)c1.O=S(=O)([N-]S(=O)(=O)C(F)(F)F)C(F)(F)F | viscosity | mPa·s | 10.82
CC(C)C[N+]1(C)CCCC1.O=S(=O)([N-]S(=O)(=O)C(F)(F)F)C(F)(F)F | viscosity | mPa·s | 11.95

Per the records, this molecule ( "CC(C)C[N+]1(C)CCCCC1.O=S(=O)([N-]S(=O)(=O)C(F)(F)F)C(F)(F)F" ) has viscosity equal to 18.47
